test system: AR230^R cells; assay: Phenotypic screening / cytotoxicity in TKI-resistant CML cell line AR230^R; type: cell-based; details: Table 3, AR230 vs AR230^R
In this section, each of the compounds is paired with its reported Fold Difference.
Lab note: record just the number, no unit beside it.

Worked cases, Fold Difference given:
# test.smiles, property, quantitative.readout
rows = [
    ("CC1(C)CCC(c2ccc(CN(C(=O)CN(C3CC3)S(=O)(=O)c3c(F)c(F)c(F)c(F)c3F)c3ccc(C(=O)O)cc3)cc2)CC1", "Fold Difference", 1.81),
    ("CC(C)(C)c1ccc(CN(C(=O)CN(C2CC2)S(=O)(=O)c2c(F)c(F)c(F)c(F)c2F)c2ccc(C(=O)O)cc2)cc1", "Fold Difference", 4),
    ("O=C(O)c1ccc(N(Cc2ccc(C3CCCC3)cc2)C(=O)CN(C2CC2)S(=O)(=O)c2c(F)c(F)c(F)c(F)c2F)cc1", "Fold Difference", 2.75),
]

Recorded Fold Difference (compound "O=C(O)c1ccc(N(Cc2ccc(C(F)(F)F)cc2)C(=O)CN(C2CC2)S(=O)(=O)c2c(F)c(F)c(F)c(F)c2F)cc1" ): 1.94

Entry "O=C(O)c1ccc(N(Cc2ccc(C3CCOCC3)cc2)C(=O)CN(C2CC2)S(=O)(=O)c2c(F)c(F)c(F)c(F)c2F)cc1" , Fold Difference reported as 1.12

"O=C(O)c1ccc(N(Cc2ccccc2)C(=O)CN(C2CC2)S(=O)(=O)c2c(F)c(F)c(F)c(F)c2F)cc1" has a reported Fold Difference of 2.26

Entry "O=C(O)c1ccc(N(Cc2ccc(N3CCOCC3)cc2)C(=O)CN(C2CC2)S(=O)(=O)c2c(F)c(F)c(F)c(F)c2F)cc1" — recorded Fold Difference = 1.42

Noted for "O=C(O)c1ccc(N(Cc2ccc(C3CCCCCC3)cc2)C(=O)CN(C2CC2)S(=O)(=O)c2c(F)c(F)c(F)c(F)c2F)cc1" : its Fold Difference reads 2.45
